IC50 by entry:
Target: Ephrin type-B receptor 4 (Homo sapiens, UniProt P54760)
Sequence (P54760 whole entry): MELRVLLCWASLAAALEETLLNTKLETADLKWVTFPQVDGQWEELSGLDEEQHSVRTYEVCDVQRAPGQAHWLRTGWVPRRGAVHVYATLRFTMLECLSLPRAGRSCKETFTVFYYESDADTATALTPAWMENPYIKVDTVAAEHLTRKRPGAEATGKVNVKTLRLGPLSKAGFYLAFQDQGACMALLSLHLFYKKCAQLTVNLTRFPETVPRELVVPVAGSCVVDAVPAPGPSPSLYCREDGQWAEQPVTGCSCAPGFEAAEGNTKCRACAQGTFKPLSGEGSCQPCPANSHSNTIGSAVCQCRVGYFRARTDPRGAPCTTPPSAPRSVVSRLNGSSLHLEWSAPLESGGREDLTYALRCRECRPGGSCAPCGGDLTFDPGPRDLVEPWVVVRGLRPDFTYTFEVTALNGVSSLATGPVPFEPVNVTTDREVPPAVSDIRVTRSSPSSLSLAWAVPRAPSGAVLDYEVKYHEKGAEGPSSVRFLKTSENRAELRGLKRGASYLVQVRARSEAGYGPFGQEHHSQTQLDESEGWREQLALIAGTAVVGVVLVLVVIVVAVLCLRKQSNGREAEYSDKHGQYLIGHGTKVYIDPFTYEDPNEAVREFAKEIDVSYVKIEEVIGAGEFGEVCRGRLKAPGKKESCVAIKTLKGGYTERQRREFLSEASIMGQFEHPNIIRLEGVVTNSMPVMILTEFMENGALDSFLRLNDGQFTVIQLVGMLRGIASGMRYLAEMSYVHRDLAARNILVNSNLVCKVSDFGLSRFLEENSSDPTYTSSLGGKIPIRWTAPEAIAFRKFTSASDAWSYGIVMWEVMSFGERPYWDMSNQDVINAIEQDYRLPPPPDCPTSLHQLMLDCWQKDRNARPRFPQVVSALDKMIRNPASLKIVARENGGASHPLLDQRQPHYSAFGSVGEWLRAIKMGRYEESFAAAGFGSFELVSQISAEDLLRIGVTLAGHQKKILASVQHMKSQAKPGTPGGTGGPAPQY
Assay: EphB4-ephrin-B2 interaction antagonists, dose response, biochemical, TNYL-RAW peptide displacement (AID 835)

[
  {
    "compound": "CCCCNC(=O)C1C2C=CC3(CN(Cc4ccccc4Cl)C(=O)C13)O2 (stereo not given) [MLS000044497]",
    "IC50": "> 79.4 µM"
  },
  {
    "compound": "CC1=C(C(=O)N2CCC3(CC2)OCCO3)C2(CCC(C)CC2)OC1=O (stereo not given)",
    "IC50": "> 79.4 µM"
  },
  {
    "compound": "O=C(CSc1nnnn1Cc1ccccc1)Nc1ccc2c(c1)OCO2 [MLS000067975]",
    "IC50": "> 79.4 µM"
  },
  {
    "compound": "CCOc1ccc(C(CCc2ccccc2)NC(=O)c2ccccc2F)cc1OCC (stereo not given) [MLS000544814]",
    "IC50": "> 79.4 µM"
  },
  {
    "compound": "Cc1cc(C)n2nc(SC3CCCCN(C(=O)c4ccc(F)cc4)C3=O)nc2n1 (stereo not given)",
    "IC50": "> 79.4 µM"
  },
  {
    "compound": "CC(=O)c1ccc(N2CCN(C(=O)c3ccc(Br)cc3)CC2)c(F)c1",
    "IC50": "> 79.4 µM"
  },
  {
    "compound": "Cc1ccc(N2C(=O)C(O)(C(F)(F)F)C3=C2CC(C)(C)CC3=O)cc1C (stereo not given)",
    "IC50": "> 79.4 µM"
  },
  {
    "compound": "Cc1[nH]c2ccccc2c1/C=C1\\N=C(c2ccc(F)cc2)OC1=O",
    "IC50": "> 79.4 µM"
  },
  {
    "compound": "CC(=O)c1ccc(-n2nnnc2SCC(=O)N2CCc3ccccc3C2)cc1",
    "IC50": "> 79.4 µM"
  },
  {
    "compound": "CCCc1nnc(NC(=O)CNc2ccc(F)cc2)s1",
    "IC50": "> 79.4 µM"
  }
]

From: BindingDB's records for doi:10.7270/Q2KP80J0
